assay: Cell Viability - LYMP2-009 (AID 968); conditions: LYMP2-009 lymphoblastoid cell viability; series mostly up to 92.2 µM;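 further: cells exposed to compound for 24 h at 37 °C; nearly all actives have a fitted effect of over 55% in size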; further: potency means the concentration at half of the fitted maximal effect
Records with an inconclusive call do not appear. Calls of active or inactive are those of the source. The call rests on the fitted dose curve; in most records, active means well fitted cell-killing curve with a large enough effect; inconclusive means small, poorly fitted or top-dose-only effect; inactive means flat fitted curve, though single readings scatter.
value kind: Potency

Cc1ccccc1C#N
inactive
CC=C(Cl)Cl
inactive
O=[N+]([O-])c1cccc(Cl)c1
inactive
CCCCCCCN
inactive
Clc1cc(Cl)cc(Cl)c1
inactive
CC1=C(/C=C/C(C)=C/C=C/C(C)=C\C=O)C(C)(C)CCC1
50.1 µM (active)
Nc1cccc(O)c1
inactive
C=C(C)C(N)=O
inactive

Look up Potency: `COc1ccccc1[N+](=O)[O-]`
inactive

Look up Potency: `Nc1ccc(F)cc1F`
inactive

Look up Potency: `C=Cc1ccc(C=C)cc1`
inactive

Look up Potency: `Nc1nc2ccccc2[nH]1`
inactive
